# Procedure Summary: Inhibition of Dengue virus serotype-2 NS2B-NS3 protease using 2-Abz-Nle-Lys-Arg-Arg-Ser-(3-NO2)-Tyr-NH2 as substrate preincubated with protein for 15 mins followed by substrate addition measured for 15 mins by FRET assay
# Design: species or system dengue virus type 2
Measure: IC50 (nM)

Please review the following examples before continuing.
test_smiles=N=C(N)NCCC[C@H](NC(=O)C1CC1)C(=O)N[C@@H](CCCCN)C(=O)N[C@@H](C(N)=O)c1ccc(OCc2ccccc2)cc1 measure=IC50 assay_value=805
test_smiles=N=C(N)NCCC[C@H](NC(=O)c1ccccc1)C(=O)N[C@@H](CCCCN)C(=O)N[C@@H](C(N)=O)c1ccc(OCc2ccc(Cl)cc2)cc1 measure=IC50 assay_value=143
test_smiles=CC(C)(C)c1ccc(COc2ccc([C@@H](NC(=O)[C@H](CCCCN)NC(=O)[C@H](CCCNC(=N)N)NC(=O)c3cc4sccc4s3)C(N)=O)cc2)cc1 measure=IC50 assay_value=157
test_smiles=COc1cccc(COc2ccc([C@@H](NC(=O)[C@H](CCCCN)NC(=O)[C@H](CCCNC(=N)N)NC(=O)c3ccc(-c4cccs4)s3)C(N)=O)cc2)c1 measure=IC50 assay_value=176
test_smiles=N=C(N)NCCC[C@H](NC(=O)c1cccs1)C(=O)N[C@@H](CCCCN)C(=O)N[C@@H](C(N)=O)c1ccc(OCc2ccc(Br)cc2)cc1 measure=IC50 assay_value=71

[1] Cc1ccc(C(=O)N[C@@H](CCCNC(=N)N)C(=O)N[C@@H](CCCCN)C(=O)N[C@@H](C(N)=O)c2ccc(OCc3ccccc3)cc2)s1
[2] N=C(N)NCCC[C@H](NC(=O)c1ccccc1)C(=O)N[C@@H](CCCCN)C(=O)N[C@H](C(N)=O)c1ccc(OCc2ccccc2)cc1
Looking only at measured IC50, which entry is lower, 1 or 2 ? Returns: label corresponding to the selected item.
1
(1: 364 nM, 2: 935 nM)

###

# Procedure Summary: Cytotoxicity against human HuH7 cells infected with West Nile virus assessed as cell viability after 48 hrs by Cell-Titer-Glo luminescent viability assay
# Type: cell-based, Huh-7
Measure: CC50 at 48 h

Look over these answered cases.
test_smiles=N=C(N)NCCC[C@H](NC(=O)c1nccs1)C(=O)N[C@@H](CCCCN)C(=O)N[C@@H](C(N)=O)c1ccc(OCc2ccc(C(F)(F)F)cc2)cc1 measure="CC50 at 48 h" assay_value="> 100 µM"
test_smiles=N=C(N)NCCC[C@H](NC(=O)c1cccs1)C(=O)N[C@@H](CCCCN)C(=O)N[C@@H](C(N)=O)c1ccc(OCc2ccc(Cl)c(Cl)c2)cc1 measure="CC50 at 48 h" assay_value="> 100 µM"

Moving on to the next compound.
Returns the measured CC50 at 48 h for the input compound. Input: `COc1cccc(COc2ccc([C@@H](NC(=O)[C@H](CCCCN)NC(=O)[C@H](CCCNC(=N)N)NC(=O)c3ccc(-c4cccs4)s3)C(N)=O)cc2)c1`
> 100 µM

###

# Tested on: West Nile virus
# Procedure Summary: Inhibition of West Nile virus NS2B-NS3 protease using 2-Abz-Gly-Leu-Lys-Arg-Gly-Gly-[…]-Tyr-NH2 as substrate at 50 uM preincubated with protein for 15 mins followed by substrate addition measured for 15 mins by FRET assay
Measure: inhibition (%)

test_smiles=N=C(N)NCCC[C@H](NC(=O)c1ccc(F)cc1)C(=O)N[C@@H](CCCCN)C(=O)N[C@@H](C(N)=O)c1ccc(OCc2ccccc2)cc1 experimental_system="West Nile virus" measure=inhibition assay_value=92.9
test_smiles=N=C(N)NCCC[C@H](NC(=O)c1cc(-c2ccccc2)cs1)C(=O)N[C@@H](CCCCN)C(=O)N[C@@H](C(N)=O)c1ccc(OCc2ccccc2)cc1 experimental_system="West Nile virus" measure=inhibition assay_value=98.6
test_smiles=N=C(N)NCCC[C@H](NC(=O)c1cc2ccccc2s1)C(=O)N[C@@H](CCCCN)C(=O)N[C@@H](C(N)=O)c1ccc(OCc2ccc(C(F)(F)F)cc2)cc1 experimental_system="West Nile virus" measure=inhibition assay_value=98.7
test_smiles=N=C(N)NCCC[C@H](NC(=O)c1scc2c1OCCO2)C(=O)N[C@@H](CCCCN)C(=O)N[C@@H](C(N)=O)c1ccc(OCc2ccccc2)cc1 experimental_system="West Nile virus" measure=inhibition assay_value=96.2
test_smiles=N=C(N)NCCC[C@H](NC(=O)c1cncs1)C(=O)N[C@@H](CCCCN)C(=O)N[C@@H](C(N)=O)c1ccc(OCc2ccccc2)cc1 experimental_system="West Nile virus" measure=inhibition assay_value=97.4
test_smiles=N=C(N)NCCC[C@H](NC(=O)c1cccs1)C(=O)N[C@@H](CCCCN)C(=O)N[C@@H](C(N)=O)c1ccc(OCC(=O)c2ccc(Br)cc2)cc1 experimental_system="West Nile virus" measure=inhibition assay_value=99.4

###

# Procedure Summary: Selectivity index, ratio of CC50 for human HuH7 cells to EC50 for West Nile virus infected in human HuH7 cells
# Format: toxicity, cell-based, Huh-7
# Measurement Conditions: read-out: Ratio CC50/EC50
Measure: selectivity ratio

Can you look up the measured selectivity ratio of `COc1cccc(COc2ccc([C@@H](NC(=O)[C@H](CCCCN)NC(=O)[C@H](CCCNC(=N)N)NC(=O)c3ccc(-c4cccs4)s3)C(N)=O)cc2)c1` for me?
> 7

###

# Tested on: West Nile virus
# Procedure Summary: Inhibition of West Nile virus NS2B-NS3 protease using 2-Abz-Gly-Leu-Lys-Arg-Gly-Gly-[…]-Tyr-NH2 as substrate at 50 uM preincubated with protein for 15 mins followed by substrate addition measured for 15 mins by FRET assay
Measure: inhibition (%)

// worked examples, inhibition included
test_smiles=N=C(N)NCCC[C@@H](NC(=O)c1ccccc1)C(=O)N[C@H](CCCCN)C(=O)N[C@H](C(N)=O)c1ccc(OCc2ccccc2)cc1 experimental_system="West Nile virus" units_text=% assay_value=71.3
test_smiles=N=C(N)NCCC[C@H](NC(=O)c1ccccc1)C(=O)N[C@@H](CCCCN)C(=O)N[C@@H](C(N)=O)c1ccc(OCc2ccc(C(F)(F)F)cc2)cc1 experimental_system="West Nile virus" units_text=% assay_value=99.7
test_smiles=CC(C)(C)c1ccc(COc2ccc([C@@H](NC(=O)[C@H](CCCCN)NC(=O)[C@H](CCCNC(=N)N)NC(=O)c3ccc(Cl)s3)C(N)=O)cc2)cc1 experimental_system="West Nile virus" units_text=% assay_value=91.3
test_smiles=N=C(N)NCCC[C@H](NC(=O)c1cc2ccsc2s1)C(=O)N[C@@H](CCCCN)C(=O)N[C@@H](C(N)=O)c1ccc(OCc2ccc(C(F)(F)F)cc2)cc1 experimental_system="West Nile virus" units_text=% assay_value=94.2
test_smiles=N=C(N)NCCC[C@H](NC(=O)c1ccc(-c2ccccc2)s1)C(=O)N[C@@H](CCCCN)C(=O)N[C@@H](C(N)=O)c1ccc(OCc2ccccc2)cc1 experimental_system="West Nile virus" units_text=% assay_value=100
test_smiles=N=C(N)NCCC[C@H](NC(=O)c1cc2ccccc2s1)C(=O)N[C@@H](CCCCN)C(=O)N[C@@H](C(N)=O)c1ccc(OCc2ccccc2C(F)(F)F)cc1 experimental_system="West Nile virus" units_text=% assay_value=93.1

[P] N=C(N)NCCC[C@H](NC(=O)c1cccc(C=O)c1)C(=O)N[C@@H](CCCCN)C(=O)N[C@@H](C(N)=O)c1ccc(OCc2ccccc2)cc1
[Q] N=C(N)NCCC[C@H](NC(=O)c1ccccc1)C(=O)N[C@@H](C(N)=O)c1ccc(OCc2ccccc2)cc1
// pick larger inhibition from pair: P vs Q Let me know the label of the one you choose.
P

###

# Experimental System: Prothrombin (Homo sapiens) (UniProt P00734)
# Procedure Summary: Inhibition of thrombin (unknown origin) using Boc-Val-Pro-Arg-AMC as substrate at 25 uM preincubated with protein for 15 mins followed by substrate addition measured for 10 mins by continuous fluorimetric assay relative to control
The source made the active and inactive calls. The rule behind the calls is not given here.
Measure: inhibition

test_smiles=N=C(N)NCCC[C@H](NC(=O)c1ccccc1)C(=O)N[C@@H](CCCCN)C(=O)N[C@@H](C(N)=O)c1ccc(OCc2ccc(C(F)(F)F)cc2)cc1 measure=inhibition assay_value="< 30%"
test_smiles=N=C(N)NCCC[C@H](NC(=O)c1cccs1)C(=O)N[C@@H](CCCCN)C(=O)N[C@@H](C(N)=O)c1ccc(OCc2ccc(C(F)(F)F)cc2)cc1 measure=inhibition assay_value=inactive
test_smiles=N=C(N)NCCC[C@H](NC(=O)c1cc2ccccc2s1)C(=O)N[C@@H](CCCCN)C(=O)N[C@@H](C(N)=O)c1ccc(OCc2ccccc2C(F)(F)F)cc1 measure=inhibition assay_value=inactive

###

# Experimental System: Trypsin (Homo sapiens) (UniProt P07477+P07478+P35030)
# Procedure Summary: Inhibition of trypsin (unknown origin) using Boc-Val-Pro-Arg-AMC as substrate at 25 uM preincubated with protein for 15 mins followed by substrate addition by continuous fluorimetric assay relative to control
Active and inactive are the calls of the source. The rule behind the calls is not given here.
Measure: inhibition

test_smiles=N=C(N)NCCC[C@H](NC(=O)c1nccs1)C(=O)N[C@@H](CCCCN)C(=O)N[C@@H](C(N)=O)c1ccc(OCc2c(Cl)cccc2Cl)cc1 assay_value=inactive
test_smiles=N=C(N)NCCC[C@H](NC(=O)c1sccc1Cl)C(=O)N[C@@H](CCCCN)C(=O)N[C@@H](C(N)=O)c1ccc(OCc2ccc(Cl)cc2)cc1 assay_value=inactive
test_smiles=N=C(N)NCCC[C@H](NC(=O)c1ccc(-c2cccs2)s1)C(=O)N[C@@H](CCCCN)C(=O)N[C@@H](C(N)=O)c1ccc(OCc2ccc(Cl)c(Cl)c2)cc1 assay_value=inactive

Entry source: ChEMBL document CHEMBL3739314
